System: PC-3 prostate
EXPERIMENTAL_DETAILS: NCI-60 one-dose screen, 48 h
CONDITION_INFO: 10 µM unless noted
About 83,000 compounds went through this panel and 20% of them were active in at least one assay; those are over-represented in the sample as a whole. The source made the active and inactive calls. Rule for the calls: active = growth percent below 10; inactive = the rest.
Would you mind answering with one of these outcomes? class 1 (active), class 0 (inactive)

{"columns": ["COMPOUND", "GROUP"],
 "data": [
  ["CCOc1ccc(-n2nc(C(=O)NCc3ccccc3OC)nc2-c2cc(OC)c(OC)c(OC)c2)cc1", "class 0"],
  ["CC1(C)CC(=O)c2c(nn(-c3ccc(Br)cc3)c2-c2cn(-c3ccccc3)nc2-c2cccnc2)C1", "class 0"],
  ["OCCNCCNC(Cc1ccc(Cl)cc1)c1ccccc1 (stereo not given)", "class 0"],
  ["Clc1c(Cl)[n+](Cc2ccc3ccccc3c2)cn1Cc1ccc2ccccc2c1", "class 1"],
  ["O=C1/C(=C/c2ccccc2F)CN(C(=O)C(Cl)Cl)C/C1=C\\c1ccccc1F", "class 1"]
]}

Hey, what did the test say about "COc1ccc(N2CCC(=S)NC2=S)cc1" ?
class 0

Hey, what did the test say about "C#CC#CC#CC#CC#CC#CC#CC#CC[C@@H]1OC[C@@H](COC(=O)O[C@@H](C(=O)O[C@H]2C[C@@]3(O)[C@@H](OC(=O)c4ccccc4)[C@@H]4[C@]5(OC(C)=O)CO[C@@H]5C[C@H](O)[C@@]4(C)C(=O)[C@H](OC(C)=O)C(=C2C)C3(C)C)[C@@H](NC(=O)c2ccccc2)c2ccccc2)O1" ?
class 0

Every entry's value here was drawn from PubChem BioAssay (NCI).
